Source: ChEMBL document CHEMBL5291721

- experimental_target: 3',5'-cyclic-AMP phosphodiesterase 4D (Homo sapiens, UniProt Q08499); further: assay procedure not described here
- Sequence (Q08499 whole entry): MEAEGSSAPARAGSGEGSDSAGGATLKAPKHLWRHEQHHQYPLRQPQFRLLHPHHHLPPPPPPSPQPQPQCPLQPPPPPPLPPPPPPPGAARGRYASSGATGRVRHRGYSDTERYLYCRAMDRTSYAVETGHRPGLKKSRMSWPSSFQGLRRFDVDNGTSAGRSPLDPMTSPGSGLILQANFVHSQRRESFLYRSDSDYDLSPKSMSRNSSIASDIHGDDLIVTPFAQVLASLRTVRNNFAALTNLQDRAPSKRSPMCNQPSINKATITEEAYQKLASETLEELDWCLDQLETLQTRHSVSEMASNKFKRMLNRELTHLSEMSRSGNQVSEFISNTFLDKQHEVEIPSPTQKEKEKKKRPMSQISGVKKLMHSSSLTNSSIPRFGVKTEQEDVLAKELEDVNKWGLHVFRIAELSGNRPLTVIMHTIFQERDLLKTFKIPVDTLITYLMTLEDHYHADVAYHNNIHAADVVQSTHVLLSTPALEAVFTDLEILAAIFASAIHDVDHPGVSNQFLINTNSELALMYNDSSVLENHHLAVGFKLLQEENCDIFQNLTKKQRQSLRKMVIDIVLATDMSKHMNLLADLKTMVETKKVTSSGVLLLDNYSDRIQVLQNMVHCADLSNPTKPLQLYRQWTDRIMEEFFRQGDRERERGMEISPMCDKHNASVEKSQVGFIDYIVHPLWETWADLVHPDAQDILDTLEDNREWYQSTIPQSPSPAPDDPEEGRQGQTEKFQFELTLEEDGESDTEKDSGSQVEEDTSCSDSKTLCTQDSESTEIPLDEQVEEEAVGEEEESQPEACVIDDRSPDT
- Assay type: functional
Exercise: for every item that follows, state its recorded AC50.

Worked examples, 2 compounds total:
| compound | obs_value |
| --- | --- |
| Nc1ccc(/N=N/c2ccccc2)c(N)n1 | 14 µM |
| CCN1CCC[C@H]1CNC(=O)c1cc(S(N)(=O)=O)ccc1OC [LEVOSULPIRIDE] | > 30 µM |

Need AC50 for each of these compounds.
1. C1=Cc2cccc(OCC3CNCCO3)c2C1 (stereo unspecified)
2. O=C(O)CCn1c2c(c3ccccc31)C[C@H](NS(=O)(=O)c1ccc(F)cc1)CC2

1. > 30 µM
2. > 30 µM

Need AC50 for each of these compounds.
1. CCOc1cc(N)c([N+](=O)[O-])cc1C(=O)NC1CCN(CC2CC=CCC2)CC1 (stereo unspecified) [CINITAPRIDE]
2. CCCOc1ccc(C(=O)OCCN(CC)CC)cc1N
3. CN1C(=O)CC(C)(c2ccccc2)C1=O (stereo unspecified) [METHSUXIMIDE]

1: > 30 µM; 2: > 30 µM; 3: > 30 µM

Need AC50 for each of these compounds.
1. CCc1ccc(CCOc2ccc(CC3SC(=O)NC3=O)cc2)nc1 (stereo unspecified)
2. O=C(C[S+]([O-])C(c1ccccc1)c1ccccc1)NO (stereo unspecified)
3. CC(=O)NS(=O)(=O)c1ccc(N)cc1 [SULFACETAMIDE]
4. N[C@@H](CSCC(=O)O)C(=O)O

> 10 µM
8.9 µM
> 30 µM
> 10 µM

* * *

Exercise: for every item that follows, state its recorded AC50.
- experimental_target: Muscarinic acetylcholine receptor M4 (Homo sapiens, UniProt P08173); further: assay procedure not described here
- Sequence (P08173 whole entry): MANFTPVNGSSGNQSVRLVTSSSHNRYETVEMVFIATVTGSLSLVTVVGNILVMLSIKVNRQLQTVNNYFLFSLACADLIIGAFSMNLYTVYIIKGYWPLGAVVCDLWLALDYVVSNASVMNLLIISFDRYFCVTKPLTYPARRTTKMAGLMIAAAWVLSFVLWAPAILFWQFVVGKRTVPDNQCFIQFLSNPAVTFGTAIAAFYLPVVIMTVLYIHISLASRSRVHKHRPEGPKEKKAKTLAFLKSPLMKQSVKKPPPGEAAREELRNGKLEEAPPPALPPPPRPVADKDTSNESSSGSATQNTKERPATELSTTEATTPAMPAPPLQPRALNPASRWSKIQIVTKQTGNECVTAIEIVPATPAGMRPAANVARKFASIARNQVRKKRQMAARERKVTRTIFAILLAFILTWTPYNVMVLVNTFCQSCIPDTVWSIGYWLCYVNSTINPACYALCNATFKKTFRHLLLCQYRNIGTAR

| compound | AC50 |
| --- | --- |
| Nc1nc(N)c2nc(-c3ccccc3)c(N)nc2n1 | > 10 µM |

Need AC50 for each of these compounds.
1. CN(C)CCCN1c2ccccc2Sc2ccccc21
2. CCOC(=O)[C@H](CCc1ccccc1)N[C@@H](C)C(=O)N1CCC[C@H]1C(=O)O
3. Cc1ccc(-c2nc3ccc(C)cn3c2CC(=O)N(C)C)cc1

1: 1.44 µM; 2: > 10 µM; 3: > 10 µM

* * *

- experimental_target: Histamine H2 receptor (Homo sapiens, UniProt P25021); further: assay procedure not described here
- Sequence (P25021 whole entry): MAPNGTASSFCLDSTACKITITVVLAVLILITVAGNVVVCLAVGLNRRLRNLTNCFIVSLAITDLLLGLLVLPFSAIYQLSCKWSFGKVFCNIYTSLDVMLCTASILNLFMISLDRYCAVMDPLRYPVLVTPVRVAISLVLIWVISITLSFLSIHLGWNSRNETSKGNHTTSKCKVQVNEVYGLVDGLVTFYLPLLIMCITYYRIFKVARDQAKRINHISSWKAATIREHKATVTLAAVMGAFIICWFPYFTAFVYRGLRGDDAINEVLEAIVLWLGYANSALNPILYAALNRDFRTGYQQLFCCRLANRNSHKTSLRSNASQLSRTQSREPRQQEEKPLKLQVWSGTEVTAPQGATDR
- Assay type: functional, cell-based
Exercise: for every item that follows, state its recorded AC50.

Worked examples, 10 compounds total:
| compound | AC50 |
| --- | --- |
| COc1c(C)c2c(c(O)c1C/C=C(\C)CCC(=O)OCCN1CCOCC1)C(=O)OC2 [MYCOPHENOLATE MOFETIL] | > 30 µM |
| OCCN1CCN(CCCN2c3ccccc3C=Cc3ccccc32)CC1 | > 30 µM |
| CCOc1cc(N)c([N+](=O)[O-])cc1C(=O)NC1CCN(CC2CC=CCC2)CC1 (centres undefined) [CINITAPRIDE] | > 30 µM |
| O=C1CN=C(c2ccccc2)c2cc(Cl)ccc2N1CC(F)(F)F | > 30 µM |
| N[C@@H](CSCC(=O)O)C(=O)O | > 30 µM |
| Nc1ncnc2c1ncn2[C@@H]1O[C@H](COP(=O)(O)O)[C@@H](O)[C@H]1O [ADENOSINE PHOSPHATE] | > 30 µM |
| Cc1ccc(C(=O)c2cc(O)c(O)c([N+](=O)[O-])c2)cc1 | > 10 µM |
| CC(=O)N(CC(O)CO)c1c(I)c(C(=O)NCC(O)CO)c(I)c(C(=O)NCC(O)CO)c1I (centres undefined) [IOHEXOL] | > 10 µM |
| COc1ccc2c(c1)c(CC(=O)OCC(=O)O)c(C)n2C(=O)c1ccc(Cl)cc1 | > 30 µM |
| C#CC1(OC(N)=O)CCCCC1 [ETHINAMATE] | > 10 µM |

Need AC50 for each of these compounds.
1. CC(C)(Oc1ccc(C2CC2(Cl)Cl)cc1)C(=O)O (centres undefined) [CIPROFIBRATE]
2. C=C1CC[C@@]2(O)[C@H]3Cc4ccc(O)c5c4[C@@]2(CCN3CC2CC2)[C@H]1O5

> 30 µM
> 30 µM

Need AC50 for each of these compounds.
1. NC(=O)C[S+]([O-])C(c1ccccc1)c1ccccc1 (centres undefined)
2. CCC(C(=O)O)c1ccc(CC(C)C)cc1 (centres undefined)
3. CCC1(C2=CCCCCC2)C(=O)NC(=O)NC1=O
4. Nc1nc(N)c2nc(-c3ccccc3)c(N)nc2n1
5. CN[C@@H]1[C@H](O)[C@H](NC)[C@H]2O[C@@]3(O)C(=O)C[C@@H](C)O[C@H]3O[C@@H]2[C@H]1O
6. COc1ccc(C(=O)N2CCN(c3ccc4c(c3)CCC(=O)N4)CC2)cc1OC
7. CC(C)(C(=O)c1cccnc1)c1cccnc1

1. > 10 µM
2. > 30 µM
3. > 10 µM
4. > 30 µM
5. > 10 µM
6. > 30 µM
7. > 10 µM
